# study system: Short transient receptor potential channel 4 (Mus musculus) (UniProt Q9QUQ5)
# run description: calcium flux activators in TRPC4/5HT1a cells, counter-screen for TRPC4 activator project, cell-based, second counter screen, HEK293 TRPC4/5HT1a, Fluo-4 (AID 434977)
# condition details: Fluo-4 calcium flux, at 10 µM
Activity calls are given as the source filed them.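 How the source made its calls: active means calcium signal rise above buffer-control mean plus 5 SD in both duplicates, and also a hit in the primary screen; inactive means the rest.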
Just give me one of these, please: active, inactive

The following compounds have reported results that may help.
CC(NC(=O)c1ccco1)C(c1cccs1)N1CCN(c2ccccc2)CC1 (centres undefined) : inactive
CC(C)c1ccccc1NC(=S)NN(Cc1ccccc1)c1ccccc1 : inactive
COC(=O)c1ccc(CSc2nc3ccccc3c(=O)n2CC(C)C)o1 : inactive

-- ask So what was the verdict on `O=C(Cc1ccccc1[N+](=O)[O-])OCc1cccc([N+](=O)[O-])c1` in this test?
-- reply inactive

-- ask So what was the verdict on `COc1ccccc1OCC(=O)Nc1ccc(Cl)cc1` in this test?
-- reply inactive

----------
# System: TRPC4 beta (transient receptor potential cation channel C4), mouse
# run description: potentiation of DAMGO EC20 TRPC4 response – cell-based, Fluo-4, HEK293 TRPC4beta/mu-opioid, confirmation (AID 2555)
# condition details: DAMGO EC20, Fluo-4 calcium flux, at 10 µM
Calls of active or inactive are those of the source.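 Rule for the calls: active = primary screen hit whose calcium fluorescence ratio, in both repeats, exceeds the weak agonist control mean by 3 SD; inactive = the rest.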
Just give me one of these, please: active, inactive

-- ask So what was the verdict on `O=C(CCc1ccccc1)Nc1ccnn1C1CCN(C/C=C/c2ccccc2)CC1` in this test?
-- reply inactive

-- ask So what was the verdict on CN1CCN(Cc2nc3ccccc3n2C)CC1CCO (stereo not given) in this test?
-- reply inactive

-- ask So what was the verdict on `Cc1ccccc1OCCNc1cc(N2CCNCC2)ccc1[N+](=O)[O-]` in this test?
-- reply inactive

----------
# Tested on: TRPC4 beta (transient receptor potential cation channel C4), mouse
# run description: TRPC4 cation channel opening, retest – cell-based, Fluo4 calcium, HEK293 TRPC4beta/mu-opioid, duplicates, 10 µM, confirmation (AID 2426)
# condition details: Fluo4 calcium fluorescence, at 10 µM
Calls of active or inactive are those of the source.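 Rule for the calls: active = fluorescence ratio normalized to control raised more than 50% in primary screen plus both repeat runs; inactive = the rest.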
Just give me one of these, please: 1 for active, -1 for inactive

-- ask So what was the verdict on CN(C)CCN1C(=O)C2C(C(=O)Nc3cc(Cl)cc(Cl)c3)C3C=CC2(O3)C1C(=O)NC1CCCCC1 (stereo not drawn) in this test?
-- reply -1

-- ask So what was the verdict on COc1ccc(C(c2nnnn2C2CCCC2)N2CCN(c3ccccc3)CC2)cc1 (stereo not drawn) in this test?
-- reply -1

-- ask So what was the verdict on `CCCCN(C)CCNC(=O)c1cc2c(-c3cccc(OC)c3)nn(C)c2s1` in this test?
-- reply -1

-- ask So what was the verdict on `CCOC(=O)c1cnc2ccc(Cl)cc2c1NCCN(C)C` in this test?
-- reply -1

-- ask So what was the verdict on `Cc1ccc(-c2nnc(N3CCC(C)CC3)c3ccccc23)cc1C` in this test?
-- reply -1

-- ask So what was the verdict on `CCN(CC)CCCNC(=S)N1CCN(c2nc3ccccc3n2CC)CC1` in this test?
-- reply -1

-- ask So what was the verdict on `COc1ccc(CCN(C)C(=O)c2cc(S(=O)(=O)N3CCCCC3)ccc2Cl)cc1OC` in this test?
-- reply -1

-- ask So what was the verdict on COc1cccc(OCc2cc(C(=O)N3CCN(C)C(c4ccccc4)C3)no2)c1 (stereo not drawn) in this test?
-- reply -1

-- ask So what was the verdict on `CSc1nsc(NC(=O)Cc2ccccc2)n1` in this test?
-- reply -1

-- ask So what was the verdict on Cc1cc2oc(C(=O)N(Cc3ccco3)C3CCS(=O)(=O)C3)cc(=O)c2cc1Cl (stereo not drawn) in this test?
-- reply -1

-- ask So what was the verdict on `Cc1ccc(Cn2c(Cc3ccccc3)nc3ccccc32)cc1` in this test?
-- reply -1

-- ask So what was the verdict on CCOC(=O)C1(CCOC)CCN(C(C)CCc2ccc(OC)cc2)CC1 (stereo not drawn) in this test?
-- reply -1

-- ask So what was the verdict on CC(OC(=O)Cn1cnc2c1c(=O)n(C)c(=O)n2C)C(=O)Nc1ccc(Cl)cc1 (stereo not drawn) in this test?
-- reply -1

-- ask So what was the verdict on `O=C(NCCN1CCOCC1)c1ccc2c(c1)N(Cc1ccc(F)cc1)C(=O)CS2` in this test?
-- reply -1

-- ask So what was the verdict on `CN(Cc1ccccc1)C(=O)CSc1nnc(-c2ccco2)n1-c1ccccc1` in this test?
-- reply -1

-- ask So what was the verdict on `O=C(c1ccc([N+](=O)[O-])s1)N1CCCc2ccccc21` in this test?
-- reply -1

----------
# Tested on: TRPC4 beta (transient receptor potential cation channel C4), mouse
# run description: potentiation of DAMGO EC20 TRPC4 response – cell-based, Fluo-4, HEK293 TRPC4beta/mu-opioid, confirmation (AID 2555)
# condition details: DAMGO EC20, Fluo-4 calcium flux, at 10 µM; stronger effect = higher value
Activity calls are given as the source filed them.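 How the source made its calls: active means primary screen hit whose calcium fluorescence ratio, in both repeats, exceeds the weak agonist control mean by 3 SD; inactive means the rest.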
measured endpoint: potentiation

Cc1ccc(-n2c(SCc3cc(=O)n4ccsc4n3)nnc2-c2cccnc2)c(C)c1 : inactive
Cc1ccc(-c2csc(NC(=O)C3CC=CCC3C(=O)O)c2C(=O)OC(C)C)cc1 (stereo not drawn) : inactive
O=C(Cc1ccccc1[N+](=O)[O-])OCc1cccc([N+](=O)[O-])c1 : inactive

----------
# study system: Short transient receptor potential channel 4 (Mus musculus)
# run description: calcium flux activators in TRPC4/5HT1a cells, counter-screen for TRPC4 activator project, cell-based, second counter screen, HEK293 TRPC4/5HT1a, Fluo-4 (AID 434977)
# condition details: Fluo-4 calcium flux, at 10 µM
Active and inactive are the calls of the source.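 How the source made its calls: active means calcium signal rise above buffer-control mean plus 5 SD in both duplicates, and also a hit in the primary screen; inactive means the rest.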
Just give me one of these, please: TRUE = active, FALSE = inactive

-- ask So what was the verdict on `COc1cc(/C=C/C(=O)OCC(=O)Nc2c(C)n(C)n(-c3ccccc3)c2=O)ccc1OCC#N` in this test?
-- reply FALSE

-- ask So what was the verdict on CCOC(=O)C1CCN(CC(O)COc2ccc(C(C)(C)C)cc2)CC1 (stereo not given) in this test?
-- reply FALSE

-- ask So what was the verdict on `COc1ccc(C(=O)NNC(=S)NC(=O)c2cccs2)cc1` in this test?
-- reply TRUE

-- ask So what was the verdict on CC1(c2ccccc2)CC(C)(C)N(C(=O)C2CCCO2)c2ccccc21 (stereo not given) in this test?
-- reply FALSE

-- ask So what was the verdict on N#Cc1c(N2CCCCC2)nc(N)c2c(N)nc3c(c12)CC(c1ccccc1)O3 (stereo not given) in this test?
-- reply FALSE

----------
# Test system: TRPC4 beta (transient receptor potential cation channel C4), mouse
# run description: potentiation of DAMGO EC20 TRPC4 response – cell-based, Fluo-4, HEK293 TRPC4beta/mu-opioid, confirmation (AID 2555)
# condition details: DAMGO EC20, Fluo-4 calcium flux, at 10 µM; stronger effect = higher value
Activity calls are given as the source filed them.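 Rule for the calls: active = primary screen hit whose calcium fluorescence ratio, in both repeats, exceeds the weak agonist control mean by 3 SD; inactive = the rest.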
measured endpoint: potentiation

Look over these answered cases.
CCCCN(CC)CCNC(=O)c1ccc2c(Cl)c3c(nc2c1)CCC3 : inactive
COc1cc(Br)cc(C2C3=C(CCCC3=O)N(c3ccc(F)cc3)C3=C2C(=O)CCC3)c1O : 29% (active)
CN(CCc1ccccn1)C(=S)Nc1cccc(S(=O)(=O)N(C)C)c1 : inactive
C=C(C)Cn1c(SCC)nc2ccccc2c1=O : inactive
Cc1cccc(OCCOCCN2CCNCC2)c1C : inactive
OC1(c2ccc(F)cc2)CCN(Cc2ccccc2)C1 (stereo not drawn) : inactive
O=C(c1ccccc1F)N1CCN(c2ccc([N+](=O)[O-])c3cccnc23)CC1 : 18% (active)
CCOC(=O)c1c(C)oc2ccc(O)c(CN3CCCCC3)c12 : inactive

-- ask Notebook entry, TRPC4 beta (transient receptor potential cation channel C4), mouse assay: potentiation of `O=S(=O)(c1ccc(Oc2ccc(Br)cc2)cc1)N1CCOCC1` = ?
-- reply inactive

-- ask Notebook entry, TRPC4 beta (transient receptor potential cation channel C4), mouse assay: potentiation of `Cc1c(CCOC(=O)c2cccc([N+](=O)[O-])c2)sc[n+]1CC(=O)c1ccccc1` = ?
-- reply inactive

-- ask Notebook entry, TRPC4 beta (transient receptor potential cation channel C4), mouse assay: potentiation of C=CCc1ccccc1OCC(O)CN1CCN(c2ccccc2OC)CC1 (stereo not drawn) = ?
-- reply inactive

-- ask Notebook entry, TRPC4 beta (transient receptor potential cation channel C4), mouse assay: potentiation of `CCCNCc1cc(Br)ccc1OCC(=O)NCCc1ccccc1` = ?
-- reply inactive

-- ask Notebook entry, TRPC4 beta (transient receptor potential cation channel C4), mouse assay: potentiation of `CCC(=O)c1cc2c(C)cc(=O)oc2c(C)c1OC(=O)C(C)C` = ?
-- reply inactive

-- ask Notebook entry, TRPC4 beta (transient receptor potential cation channel C4), mouse assay: potentiation of `CN(CCNS(=O)(=O)c1ccc2c(c1)oc(=O)n2C)Cc1ccccc1` = ?
-- reply 8% (active)

-- ask Notebook entry, TRPC4 beta (transient receptor potential cation channel C4), mouse assay: potentiation of `CN1CCN(NC(=O)c2cccc(Br)c2)CC1` = ?
-- reply 18% (active)

-- ask Notebook entry, TRPC4 beta (transient receptor potential cation channel C4), mouse assay: potentiation of c1ccc(Cn2nnnc2C(c2cccnc2)N2CCN(C3CCCCC3)CC2)cc1 (stereo not drawn) = ?
-- reply inactive

-- ask Notebook entry, TRPC4 beta (transient receptor potential cation channel C4), mouse assay: potentiation of `Cc1cccc(N2CCN(C(=O)C3(S(=O)(=O)c4ccc(Cl)cc4)CC3)CC2)c1C` = ?
-- reply 13% (active)

-- ask Notebook entry, TRPC4 beta (transient receptor potential cation channel C4), mouse assay: potentiation of COC(=O)C1=C(CCc2ccccc2)NC(=O)NC1c1ccc(Cl)cc1 (stereo not drawn) = ?
-- reply 35% (active)
